assay: Volume of distribution at steady state in Sprague-Dawley rat at 0.5 mg/kg, iv; assay type: ADME, organism-based; set-up: dose 0.5 mg/kg, route intravenous; details: in vivo, read-out: Vdss
Property Measured: Vd (L/kg)

INSERT INTO measurements (smiles_code, result) VALUES
  ('COc1ccc(F)c(-c2ccc(COc3ccc4c(c3)[C@]3(CC4)C[C@H]3C(=O)O)cc2[C@@H]2CCCC2(C)C)c1', 0.7),
  ('COc1ccc(F)c(-c2ccc(COc3cccc([C@@H](CC(=O)O)C4CC4)c3)cc2C2=CCCC2(C)C)c1', 1.1),
  ('COc1cc(-c2ccc(COc3ccc4c(c3F)[C@]3(CCC4)C[C@H]3C(=O)O)cc2[C@@H]2CCCC2(C)C)c(F)cn1', 0.8);

* * *

test: Half life in cynomolgus monkey at 0.5 mg/kg, iv; format: ADME, organism-based, Macaca fascicularis; parameters: dose 0.5 mg/kg, route intravenous; details: in vivo
Property Measured: half-life (h)

1: COc1ccc(F)c(-c2ccc(COc3ccc4c(c3)[C@]3(CC4)C[C@H]3C(=O)O)cc2[C@@H]2CCCC2(C)C)c1
2: COc1cc(-c2ccc(COc3ccc4c(c3F)[C@]3(CCC4)C[C@H]3C(=O)O)cc2[C@@H]2CCCC2(C)C)c(F)cn1
[in] Input pair: 1 , 2 . Output: entry with lower half-life. Refer to your chosen item by its label in the answer.
[out] 1
(1: 2.2 h, 2: 3.7 h)

* * *

experiment: Oral bioavailability in cynomolgus monkey at 2 mg/kg; format: ADME, organism-based, Macaca fascicularis; conditions: in vivo
Property Measured: bioavailability (%)

P: COc1cc(-c2ccc(COc3ccc4c(c3F)[C@]3(CCC4)C[C@H]3C(=O)O)cc2[C@@H]2CCCC2(C)C)c(F)cn1
Q: COc1ccc(F)c(-c2ccc(COc3ccc4c(c3)[C@]3(CC4)C[C@H]3C(=O)O)cc2[C@@H]2CCCC2(C)C)c1
[in] Endpoint returns whichever of P and Q has the numerically higher bioavailability. Refer to your chosen item by its label in the answer.
[out] Q
(Q: 69%, P: 44%)

* * *

assay: Half life in Sprague-Dawley rat at 0.5 mg/kg, iv; format: ADME, organism-based; design: dose 0.5 mg/kg, route intravenous; conditions: in vivo
Property Measured: half-life (h)

INSERT INTO assay_data (smiles_code, result) VALUES
  ('COc1cc(-c2ccc(COc3ccc4c(c3F)[C@]3(CCC4)C[C@H]3C(=O)O)cc2[C@@H]2CCCC2(C)C)c(F)cn1', 4.1),
  ('COc1ccc(F)c(-c2ccc(COc3ccc4c(c3)[C@]3(CC4)C[C@H]3C(=O)O)cc2[C@@H]2CCCC2(C)C)c1', 4.2);

* * *

target: Free fatty acid receptor 1 (Homo sapiens, UniProt O14842); assay: Agonist activity at human FFA1 receptor expressed in CHO cell membranes after 4 hrs by aequorin bioluminescence assay
Sequence (O14842 whole entry): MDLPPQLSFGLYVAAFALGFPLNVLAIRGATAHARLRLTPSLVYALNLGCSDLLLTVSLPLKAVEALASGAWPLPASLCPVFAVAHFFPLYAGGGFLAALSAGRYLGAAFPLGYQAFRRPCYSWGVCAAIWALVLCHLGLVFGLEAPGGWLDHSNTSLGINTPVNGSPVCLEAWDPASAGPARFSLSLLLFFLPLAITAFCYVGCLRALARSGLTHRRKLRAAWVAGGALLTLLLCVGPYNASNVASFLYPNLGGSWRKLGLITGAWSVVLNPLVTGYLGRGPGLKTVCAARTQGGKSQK
Property Measured: EC50 (nM)

Use the examples below as a reference point.
INSERT INTO assay_data (smiles_code, result) VALUES
  ('COc1ccc(F)c(-c2ccc(COc3ccc4c(c3)[C@]3(CCC4)C[C@H]3C(=O)O)cc2[C@@H]2CCCC2(C)C)c1', 92),
  ('COc1ccc(F)c(-c2ccc(COc3ccc4c(c3)[C@]3(CC4)C[C@H]3C(=O)O)cc2[C@H]2CCCC2(C)C)c1', 212),
  ('COc1ccc(F)c(-c2ccc(COc3ccc4c(c3)[C@]3(CC4)CC[C@H]3C(=O)O)cc2C2=CCCC2(C)C)c1', 520),
  ('COc1ccc(F)c(-c2ccc(COc3ccc4c(c3)[C@]3(CCC4)CC[C@H]3C(=O)O)cc2C2=CCCC2(C)C)c1', 350),
  ('COc1ccc(F)c(-c2ccc(COc3ccc4c(c3)[C@H]3[C@@H](C4)[C@@H]3C(=O)O)cc2C2=CCCC2(C)C)c1', 1420);

I: COc1ccc(F)c(-c2ccc(COc3ccc4c(c3)[C@]3(CC4)C[C@H]3C(=O)O)cc2[C@@H]2CCCC2(C)C)c1
II: COc1ccc(F)c(-c2ccc(COc3ccc4c(c3)[C@]3(CC4)C[C@H]3C(=O)O)cc2C2=CCCC2(C)C)c1
[in] Endpoint returns whichever of I and II has the numerically higher EC50. Refer to your chosen item by its label in the answer.
[out] II

A: COc1ccc(F)c(-c2ccc(COc3ccc4c(c3)[C@@]3(CC4)C[C@H]3C(=O)O)cc2C2=CCCC2(C)C)c1
B: COc1ccc(F)c(-c2ccc(COc3ccc4c(c3)[C@]3(CCC4)C[C@H]3C(=O)O)cc2C2=CCCC2(C)C)c1
[in] Input pair: A , B . Output: entry with lower EC50. Refer to your chosen item by its label in the answer.
[out] B
(B: 150 nM, A: 3780 nM)

* * *

assay: Clearance in cynomolgus monkey at 0.5 mg/kg, iv; assay type: ADME, organism-based, Macaca fascicularis; parameters: dose 0.5 mg/kg, route intravenous; details: in vivo
Property Measured: clearance (mL/min/kg)

1: COc1cc(-c2ccc(COc3ccc4c(c3F)[C@]3(CCC4)C[C@H]3C(=O)O)cc2[C@@H]2CCCC2(C)C)c(F)cn1
2: COc1ccc(F)c(-c2ccc(COc3ccc4c(c3)[C@]3(CC4)C[C@H]3C(=O)O)cc2[C@@H]2CCCC2(C)C)c1
[in] Input pair: 1 , 2 . Output: entry with lower clearance. Refer to your chosen item by its label in the answer.
[out] 1

* * *

biological target: Free fatty acid receptor 1 (Homo sapiens, UniProt O14842); assay: Agonist activity at human FFA1 receptor expressed in CHO cell membranes after 4 hrs by aequorin bioluminescence assay
Property Measured: EC50

INSERT INTO assay_data (smiles_code, subject_of_test, result) VALUES
  ('COc1ccc(F)c(-c2ccc(COc3ccc4c(c3)[C@H]3[C@@H](C4)[C@H]3C(=O)O)cc2C2=CCCC2(C)C)c1', 'Free fatty acid receptor 1 (Homo sapiens, UniProt O14842)', '> 30 µM'),
  ('COc1ccc(F)c(-c2ccc(COc3ccc4c(c3)[C@]3(CC4)C[C@@H]3C(=O)O)cc2C2=CCCC2(C)C)c1', 'Free fatty acid receptor 1 (Homo sapiens, UniProt O14842)', '> 30 µM');

[in] Fill in the blank: the reported EC50 of COc1ccc(F)c(-c2ccc(COc3ccc4c(c3)[C@@H]3[C@H](C4)[C@H]3C(=O)O)cc2C2=CCCC2(C)C)c1 is ____.
[out] > 30 µM

[in] Fill in the blank: the reported EC50 of COc1cc(-c2ccc(COc3ccc4c(c3F)[C@]3(CCC4)C[C@H]3C(=O)O)cc2[C@@H]2CCCC2(C)C)c(F)cn1 is ____.
[out] 0.105 µM

[in] Fill in the blank: the reported EC50 of COc1ccc(F)c(-c2ccc(COc3ccc4c(c3F)[C@]3(CCC4)C[C@H]3C(=O)O)cc2[C@@H]2CCCC2(C)C)c1 is ____.
[out] 0.098 µM

[in] Fill in the blank: the reported EC50 of COc1ccc(F)c(-c2ccc(COc3ccc4c(c3)[C@@H]3[C@H](C4)[C@@H]3C(=O)O)cc2C2=CCCC2(C)C)c1 is ____.
[out] > 30 µM

[in] Fill in the blank: the reported EC50 of COc1ccc(F)c(-c2ccc(COc3ccc4c(c3)[C@@]3(CC4)C[C@@H]3C(=O)O)cc2C2=CCCC2(C)C)c1 is ____.
[out] > 30 µM
